- system_under_test: T1, HLA-A*03:01 (human)
- T1 construct: Peptide-receptive MHC class I monomer in the UV-ligand exchange assay
- assay_text: UV peptide exchange, anti-b2m ELISA; exchange yield grade
This section presents binders with their documented peptide exchange yield values.

Worked examples, 3 binders total:
binder	peptide exchange yield
SLIPIVPFKS	20 to 50%
MLSAQFILK	≥ 75%
RLYSGSSFLY	≥ 75%

The binder listed as KVGAVVHLK has a reported peptide exchange yield of 50 to 75%

The binder listed as SVISVLTTPK has a reported peptide exchange yield of ≥ 75%

The binder listed as TTAAVYILK has a reported peptide exchange yield of 50 to 75%

Hello, the source for this data is patent US20240358755A1, in case you need it.
